Cited source: the supplement of paper PMC10567573

B1: SLC6A17 (parent)
chain: HMFTPKLDKMLDPQVWREAATQVF

- Variants of: B1
- Procedure summary: protein stability index of a GFP-peptide fusion (GPS, HEK-293T) (PSI 1-6); higher = more stable;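 also: lentivirally expressed fusions sorted by FACS into six bins by GFP to DsRed ratio, PSI derived from sequencing read proportions per bin multiplied by bin number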
- Cond: c terminus: a fixed tail appended
Readout kind: protein stability index
Number only, no unit.

Worked examples, 5 variants total:
M2I; 2.53
F24K; 3.81
P13A; 2
M2V; 1.62
A19Q; 2.35

Using the record for `M2Q` , report its protein stability index.
2.52

Now give it for `F24M` too.
2.96

Now give it for `W16Y` too.
2.62

Now give it for `L11A` too.
1.55

Now give it for `T4M` too.
2.97

Now give it for `D8H` too.
1.84
